Biological target: Dual specificity protein phosphatase 6 (Homo sapiens) (UniProt Q16828)
Sequence (Q16828 whole entry, looked up): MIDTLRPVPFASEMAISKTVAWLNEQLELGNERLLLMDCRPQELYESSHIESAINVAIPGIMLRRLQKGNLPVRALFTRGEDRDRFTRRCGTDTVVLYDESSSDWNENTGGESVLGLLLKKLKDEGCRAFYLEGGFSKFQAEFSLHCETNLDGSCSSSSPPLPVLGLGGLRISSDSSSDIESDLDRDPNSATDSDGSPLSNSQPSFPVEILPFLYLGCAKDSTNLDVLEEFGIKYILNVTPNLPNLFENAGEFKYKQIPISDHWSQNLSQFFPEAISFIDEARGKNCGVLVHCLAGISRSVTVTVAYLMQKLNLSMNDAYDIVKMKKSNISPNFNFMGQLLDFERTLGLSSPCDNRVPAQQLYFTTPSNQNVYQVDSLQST
Assay: DUSP6 inhibitors restoring Erk phosphorylation by chemical complementation, primary imaging in DUSP6-transfected HeLa (AID 609);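 note: phospho-Erk level distribution per well compared with pooled transfected vehicle control wells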
Conditions: HeLa MKP-3 transfected, phospho-Erk imaging KS statistic; at 10 µM; active compounds read high; cells stimulated with TPA for 15 min
The source made the active and inactive calls.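 Rule for the calls: active = compounds giving at least 50% inhibition in the cell-based MKP-3 phosphatase rescue imaging test; inactive = the rest.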
Field: inhibition. Provide a value for each of the compounds that follow.

Examples with answers:
- COc1ccc(Cn2c(N)c(C#N)c3nc4ccccc4nc32)cc1OC: 27.8% (inactive)
- NC(=O)c1cc(-c2ccccc2)nc(Oc2ccccc2)n1: 6.51% (inactive)
- CNCCCC12CCC(c3ccccc31)c1ccccc12: 3.45% (inactive)

For each of the compounds below, state inhibition.
1. Cc1cc2c(c(=O)o1)C(Cc1ccccc1)C(C#N)=C(N)O2 (centres undefined)
2. Clc1ccc2c(c1)C(N1CCNCC1)=Nc1ccccc1O2
3. Cc1cc(C)c(C#N)c(SCc2[nH]nc3c2C(c2ccccc2)C(C#N)=C(N)O3)n1 (centres undefined)
4. COc1cccc(C(=O)N2CCN(S(=O)(=O)Cc3ccccc3)CC2)c1OC
5. CCOC(=O)C1=C(C)NC(=O)NC1c1ccc2c(c1)OCO2 (centres undefined)
6. CCC1(C)Cc2c(sc3nc4n(c(=O)c23)CCS4)CO1 (centres undefined)
7. O=CN1CCN(C(=O)CN2C(=O)c3ccccc3C2=O)CC1

Result:
1. 9.61% (inactive)
2. -7.45% (inactive)
3. -7.28% (inactive)
4. 12.7% (inactive)
5. -13.3% (inactive)
6. -6.86% (inactive)
7. 11.4% (inactive)
